Reference source: patent US5240933A

subjectOfTest: opiate receptor (Homo sapiens)
Sequence (P35372 whole entry): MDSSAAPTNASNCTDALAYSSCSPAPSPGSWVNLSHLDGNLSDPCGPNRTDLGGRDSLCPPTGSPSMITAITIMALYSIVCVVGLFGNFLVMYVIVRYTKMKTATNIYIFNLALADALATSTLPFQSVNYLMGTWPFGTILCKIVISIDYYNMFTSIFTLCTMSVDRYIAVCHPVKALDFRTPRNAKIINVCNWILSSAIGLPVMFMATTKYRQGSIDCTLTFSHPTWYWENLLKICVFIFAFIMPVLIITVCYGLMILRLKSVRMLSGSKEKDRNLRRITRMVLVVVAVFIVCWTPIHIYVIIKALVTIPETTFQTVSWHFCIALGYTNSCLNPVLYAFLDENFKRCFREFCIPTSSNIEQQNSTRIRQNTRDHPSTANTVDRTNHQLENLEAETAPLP
A collection of compounds and their measured pKi
Notebook: values listed as pKi are -log10 of the concentration (mol/L).

INSERT INTO assay_data (compound, measvalue) VALUES
  ('COCCN1CC[C@]23c4c5ccc(O)c4O[C@H]2[C@H](O)CC[C@@]3(O)[C@H]1C5 [compound 1b]', 8.75);

**Q:** pKi lookup needed for COCCN1CC[C@]23c4c5ccc(O)c4O[C@H]2[C@@H](O)CC[C@@]3(O)[C@H]1C5 [compound 1a] , thanks.
**A:** 9.04

----------
subjectOfTest: opiate receptor
protocolText: opiate receptor binding test with [^3 H]-naloxon as radioligand
conditionsUsed: without sodium chloride
A collection of compounds and their measured Ki
Write the numeric value and follow it with the unit.

INSERT INTO assay_data (structurestring, testreadout, measvalue) VALUES
  ('COCCN1CC[C@]23c4c5ccc(O)c4O[C@H]2[C@@H](O)CC[C@@]3(O)[C@H]1C5', 'Ki', '2.14 nM');

**Q:** Ki lookup needed for `COCCN1CC[C@]23c4c5ccc(O)c4O[C@H]2[C@H](O)CC[C@@]3(O)[C@H]1C5` , thanks.
**A:** 1.07 nM

----------
subjectOfTest: opiate receptor
protocolText: opiate receptor binding test with [^3 H]-naloxon as radioligand
conditionsUsed: with the addition of 0.1M sodium chloride
testReadout: pKi
Notebook: values listed as pKi are -log10 of the concentration (mol/L).

INSERT INTO measurements (structurestring, subjectoftest, measvalue) VALUES
  ('COCCN1CC[C@]23c4c5ccc(O)c4O[C@H]2[C@@H](O)CC[C@@]3(O)[C@H]1C5', 'opiate receptor', 8.62);

Continue with the next compound.
**Q:** pKi lookup needed for `COCCN1CC[C@]23c4c5ccc(O)c4O[C@H]2[C@H](O)CC[C@@]3(O)[C@H]1C5` , thanks.
**A:** 8.92
